target: Phospholipid hydroperoxide glutathione peroxidase GPX4 (Homo sapiens) (UniProt P36969); assay: Primary qHTS Assay for Inhibitors of Recombinant Selenoprotein Glutathione Peroxidase 4 (GPX4) (AID 1845192); conditions: recombinant GPX4, GR-coupled NADPH fluorescence, 15 min; series mostly up to 50 µM; further: nearly all actives have a fitted effect of over 65% in size
Sequence (P36969 whole entry, looked up): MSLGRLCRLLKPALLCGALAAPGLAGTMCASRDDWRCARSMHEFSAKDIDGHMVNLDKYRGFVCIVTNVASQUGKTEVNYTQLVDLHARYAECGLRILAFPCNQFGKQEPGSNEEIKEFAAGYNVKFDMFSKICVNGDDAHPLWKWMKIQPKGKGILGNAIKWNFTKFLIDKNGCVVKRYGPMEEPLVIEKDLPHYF
Inconclusive results are not listed. The source made the active and inactive calls. The call rests on the fitted dose curve; in most records, active means well fitted inhibition curve with a large enough effect; inconclusive means small, poorly fitted or top-dose-only effect; inactive means flat fitted curve, though single readings scatter.
Returns: one label drawn from active, inactive

Just curious, what result did `CC(C)CCC[C@@H](C)[C@H]1CC[C@H]2[C@@H]3CC=C4C[C@@H](OC(=O)NCCN(C)C)CC[C@]4(C)[C@H]3CC[C@]12C` get here?
inactive

# outcome recorded in this test, key = `CCN(CC)Cc1cccc(/C=C/c2nc3ccc(F)cc3c(=O)n2-c2ccccc2Cl)n1`
inactive

What call does the record list for COc1cc(F)ccc1-c1ncnc(Nc2cccc(CS(C)(=N)=O)c2)n1 (stereo unspecified) ?
inactive

I would be grateful if you could indicate the recorded call for `Cc1[nH]c(/C=C2\C(=O)Nc3ccc(F)cc32)c(C)c1C(=O)NC[C@H](O)CN1CCOCC1` .
inactive

Identify the outcome logged in this assay for the compound shown: `Nc1ncnc(Nc2ccc(OCc3ccccc3)c(Cl)c2)c1/C=N/OCCN1CCOCC1`
inactive

Kindly provide the recorded test outcome for the following compound: CC1(C)SC2C(NC(=O)[C@H](C(=O)O)c3ccsc3)C(=O)N2C1C(=O)O (stereo partly specified)
inactive

What outcome does the record of this test show for `C=C1/C(=C/C=C2\CCC[C@]3(C)[C@@H]([C@H](C)/C=C/C(=O)C4CC4)CC[C@@H]23)C[C@@H](O)C[C@@H]1O` ?
inactive

Query: recorded result category for C[S+](CC[C@H](N)C(=O)O)C[C@H]1O[C@@H](n2cnc3c(N)ncnc32)[C@H](O)[C@H]1O (stereo partly specified) in this test
inactive

Fill in: this test's call for `Cc1cccc(/C=C/c2ccccc2)n1` is ___
inactive

Identify the outcome logged in this assay for the compound shown: CCCCC(=O)N(Cc1ccc(-c2ccccc2-c2nn[nH]n2)cc1)C(C(=O)O)C(C)C (stereo unspecified)
inactive

// param item: `O=C(C1=CCN2c3c(cccc31)OC[C@H]2CN1CCOCC1)c1cccc2ccccc12` ; yields the recorded call
inactive

Check the results log: what was the call for `CC(C)=CCC/C(C)=C/CC/C(C)=C/CSc1ccccc1C(=O)O` ?
active

Give the logged outcome of this assay for the following compound: `c1ccc(-c2cnc(Nc3ccc(OCCN4CCCC4)cc3)s2)cc1`
inactive

Per the records of this test, what outcome belongs to `Cc1cc(C)c(NC(=O)N(Cc2ccc3c(c2)Cc2ccccc2-3)C2CCCCCC2)c(C)c1` ?
inactive

Outcome logged for `CN(C)CCCNc1nc(CN2CCN(C(c3ccc(Cl)cc3)c3ccc(Cl)cc3)CC2)nc2ccccc12` in this assay:
inactive

# fetch the recorded call for CC[C@]1(O)C[C@H]2CN(CCC3C(=Nc4ccccc43)[C@@](C(=O)OC)(c3cc4c(cc3OC)N(C)[C@H]3[C@@](O)(C(N)=O)[C@H](O)[C@]5(CC)C=CCN6CC[C@]43[C@@H]65)C2)C1 (stereo partly specified) here
inactive

Kindly provide the recorded test outcome for the following compound: C/C=C/CC(C)C(O)C1C(=O)NC(CC)C(=O)N(C)CC(=O)N(C)C(CC(C)C)C(=O)NC(C(C)C)C(=O)N(C)C(CC(C)C)C(=O)NC(C)C(=O)NC(C)C(=O)N(C)C(CC(C)C)C(=O)N(C)C(CC(C)C)C(=O)N(C)C(C(C)C)C(=O)N1C (stereo unspecified)
inactive

Recorded test call requested for `Fc1ccccc1CNCc1ccc(-c2ccnc3[nH]ccc23)cc1`
active

For `CCCC[C@@H](C=O)NC(=O)[C@H](CC(C)C)NC(=O)OCc1ccccc1` , which call appears in the assay record?
inactive

Please indicate how the test categorized `C#C[C@]1(OC(C)=O)CC[C@H]2[C@@H]3CCC4=CC(=O)CC[C@@H]4[C@H]3CC[C@@]21C` .
inactive

Status in this test for CC(=O)c1c(OCCN2CCCCC2)c(OCCC(C)c2ccc(F)cc2)c2oc(C)nc2c1C (stereo unspecified) ?
inactive

# fetch the recorded call for CCN1CCN(Cc2ccc(-c3cc4c(NC(C)c5ccccc5)ncnc4[nH]3)cc2)CC1 (stereo unspecified) here
active

Identify the outcome logged in this assay for the compound shown: `CCCCc1nc(Cl)c(CO)n1Cc1ccc(-c2ccccc2-c2nnn[nH]2)cc1`
inactive

Outcome logged for `C=C1C(=O)O[C@@H]2C[C@@]3(C)CCC[C@H](C)C3=C[C@H]12` in this assay:
inactive

Give the logged outcome of this assay for the following compound: `C=C1C(=O)O[C@@H]2[C@H]1[C@H](O)C[C@]1(C)[C@@H](O)CC=C(C)[C@@H]21`
inactive

Lab log entry: `C[C@@H](CN1CCC(n2c(=O)[nH]c3cc(Cl)ccc32)CC1)NC(=O)c1ccc2ccccc2c1` — outcome as called in the assay?
inactive

Tell me the recorded outcome of this test for C=C1C(=O)O[C@@H]2/C=C(/C)CC3C=C(C[C@H](OC(=O)/C(C)=C\C)[C@@H]12)C(=O)O3 (stereo partly specified) .
inactive

Would you mind telling me which call this test gave `N#Cc1ccc(-c2c(-c3ncn[nH]3)sc(N3CCOCC3)c2C#N)c(F)c1` ?
inactive

// param item: O=C(c1ccc(F)c(F)c1Nc1ccc(I)cc1F)N1CC(O)(C2CCCCN2)C1 (stereo unspecified) ; yields the recorded call
inactive

Test call, this compound: O=C(NC(NC(=S)Nc1ccc(F)c([N+](=O)[O-])c1)C(Cl)(Cl)Cl)C(c1ccccc1)c1ccccc1 (stereo unspecified)
inactive

// return assay outcome for `CN(C)C(=O)c1cc2cnc(Nc3ccc(N4CCNCC4)cn3)nc2n1C1CCCC1`
inactive

# fetch the recorded call for C=C(C(=O)O)C1CC2=C(C)C(=O)CC2C(C)CC1O (stereo unspecified) here
inactive

Assay outcome for `Cn1cnc(-c2nccc3c(=O)[nH]c(OCCCC(F)(F)F)nc23)c1` : what was it?
active

Could you kindly confirm the outcome this assay logged for `CN(CCO)C1CCN(c2ccc(Nc3ncc4c5ccnc(F)c5n(C5CCCC5)c4n3)nc2)CC1` ?
inactive

Query: recorded result category for `COc1ccc(C2(CNC(=O)[C@](C)(Cc3c[nH]c4ccccc34)NC(=O)Nc3ccc([N+](=O)[O-])cc3)CCCCC2)nc1` in this test
inactive

For this compound, state the assay outcome: `COc1cc(O)c(C(=O)CCc2ccc(O)cc2)c(O[C@@H]2O[C@H](CO)[C@@H](O)[C@H](O)[C@H]2O)c1`
inactive

Measured values drawn from PubChem BioAssay (NCATS) for this set.
